# koff annotations
- tgt: T1, mouse folate receptor alpha (mFRα), recombinant protein (mouse, UniProt P35846 25-232)
- T1 construct: Bought recombinant proteins (e.g. biotinylated, Acro Biosystems FO1-M82E9); also called mFOLR1; Ms FOLR1
- procedureDetails: BLI, Avi-biotinylated FRα on streptavidin biosensors, VHH 100 nM
API: value field is a number in s⁻¹; no unit string.

Some solved entries appear below for comparison.
[[record]]
binder = "P01500008: 2MFR67(Q1E, Q5V, Q108L)-FLAG3-HIS6 (VHH, Entry includes the tags; also called 2MFR67-Flag3-His6) VHH: EVQLVESGGGLVQAGGSLRLSCAASGSGFSGMIMGWYRQAPGKQRELVATVTSHGTTNYADSVKGRFTISREDSKNTVLLQMNSLKPEDTAVYYCNAHFPGIYWGKGTLVTVSS"
attributemeasured = "koff"
measurementunits = "s⁻¹"
recordedmeasurement = 0.00042

[[record]]
binder = "P01500001 = humanised variant 1 (h1) 2HFO42-His6: 2HF042(Q1E, Q5V, A14P, V40A, L79Y, K83R, Q108L)-HIS6 (VHH, Entry includes the tag; also called P0150001; humanised 2HFO42) VHH: EVQLVESGGGLVQPGGSLRLSCAASGSGFSGMIMGWYRQAPGKQRELVATVTSHGTTNYADSVKGRFTISRDNAKNTVYLQMNSLRPEDTAVYYCNAHFPGIYWGKGTLVTVSS"
attributemeasured = "koff"
measurementunits = "s⁻¹"
recordedmeasurement = 0.00126

[[record]]
binder = "P01500002 = h2 variant 2HFO42: 2HF042(Q1E, Q5V, A14P, V40A, L79Y, K83R, K105Q, Q108L)-HIS6 (VHH, Entry includes the tag) VHH: EVQLVESGGGLVQPGGSLRLSCAASGSGFSGMIMGWYRQAPGKQRELVATVTSHGTTNYADSVKGRFTISRDNAKNTVYLQMNSLRPEDTAVYYCNAHFPGIYWGQGTLVTVSS"
attributemeasured = "koff"
measurementunits = "s⁻¹"
recordedmeasurement = 0.00307


Input: What value of koff has been reported for the following binder? P01500007: 2HF042(Q1E, Q5V, A14P, V40A, L79Y, K83R, K105Q, Q108L)-FLAG3-HIS6 (VHH, Entry includes the tags) VHH: EVQLVESGGGLVQPGGSLRLSCAASGSGFSGMIMGWYRQAPGKQRELVATVTSHGTTNYADSVKGRFTISRDNAKNTVYLQMNSLRPEDTAVYYCNAHFPGIYWGQGTLVTVSS
Output: 0.00292
